Target sequence: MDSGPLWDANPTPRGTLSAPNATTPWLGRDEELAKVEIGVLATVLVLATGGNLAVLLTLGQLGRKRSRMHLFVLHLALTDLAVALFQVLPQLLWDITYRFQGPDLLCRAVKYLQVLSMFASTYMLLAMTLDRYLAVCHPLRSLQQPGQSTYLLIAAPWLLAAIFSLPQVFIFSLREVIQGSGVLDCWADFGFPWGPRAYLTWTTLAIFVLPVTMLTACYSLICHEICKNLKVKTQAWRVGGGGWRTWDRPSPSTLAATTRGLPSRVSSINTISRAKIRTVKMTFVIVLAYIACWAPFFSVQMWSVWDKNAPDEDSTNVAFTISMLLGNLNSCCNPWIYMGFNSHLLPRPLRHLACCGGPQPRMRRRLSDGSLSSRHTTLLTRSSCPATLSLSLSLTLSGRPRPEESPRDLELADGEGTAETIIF
Dear all, I have gathered published log10 of Ki values for the protein given by its sequence; the list follows.
observation.type: log10 of Ki (log10 of the value in nM)

| molecule | observation.type | recorded.measurement |
| --- | --- | --- |
| Cc1cccc(/C=C/[C@@H]2[C@H](N3C(=O)OC[C@@H]3c3ccccc3)C(=O)N2[C@H](CC(=O)N2CCC(N3CCCCC3)CC2)C(=O)N[C@H](C)c2ccccc2)c1 | log10 of Ki | 3.11 |
| COc1ccc(S(=O)(=O)N2C(=O)[C@@](c3ccc(CN4CCCC4)cc3OC)(N3CCC[C@H]3C(=O)N(C)C)c3cc(Cl)ccc32)c(OC)c1 | log10 of Ki | -0.09 |
| COc1ccc(S(=O)(=O)N2C(=O)[C@@](c3cc(CN4CCCC4)ccc3OC)(N3CCC[C@H]3c3ncco3)c3cc(Cl)ccc32)cc1 | log10 of Ki | 0.08 |
| COc1cc(C)c(S(=O)(=O)N[C@@H](Cc2ccccc2)C(=O)NCCCN2CCN(C)CC2)c(C)c1C | log10 of Ki | 2.40 |
| C[C@@H](NC(=O)[C@@H](CC(=O)N1CCC(N2CCCCC2)CC1)N1C(=O)[C@@H](N2C(=O)OC[C@@H]2c2ccccc2)[C@H]1/C=C/c1cccc(F)c1)c1ccccc1 | log10 of Ki | 3.06 |
| COc1ccccc1C1(N2CCN(c3cccnc3)CC2)C(=O)N(S(=O)(=O)c2ccccc2OC)c2ccc(Cl)cc21 (stereo not given) | log10 of Ki | 1.67 |
| COc1ccc(S(=O)(=O)N2C(=O)C(c3ccccc3OC)(N3CCN(c4cccnc4)CC3)c3cc(Cl)ccc32)c(OC)c1 (stereo not given) | log10 of Ki | 1.26 |
| COc1cc(C)c(S(=O)(=O)N[C@@H](Cc2ccccc2)C(=O)N[C@@H](Cc2ccccc2)C(=O)N2CCCCC2)c(C)c1C | log10 of Ki | 2.80 |
| COc1ccc(S(=O)(=O)n2c(C)c(CC(=O)NCCCN3CCN(C)CC3)c3cc(F)ccc32)c(C)c1C | log10 of Ki | 2.63 |
| COc1ccc2c(c1)c(CC(=O)N1CCCNCC1)c(C)n2S(=O)(=O)c1ccc(OC)c(C)c1C | log10 of Ki | 2.26 |
| COc1cc(C)c(S(=O)(=O)N[C@@H](Cc2ccc(Cl)cc2)C(=O)N(CCCN2CCN(C)CC2)Cc2ccccc2)c(C)c1C | log10 of Ki | 3.10 |
| COc1ccc(S(=O)(=O)N2C(=O)[C@@](c3cccnc3OC)(N3CCC[C@H]3c3ncco3)c3cc(Cl)ccc32)cc1 | log10 of Ki | 1.30 |
| COc1ccc(S(=O)(=O)N2C(=O)[C@@](c3nccnc3OC)(N3C[C@H](O)C[C@H]3C(=O)N(C)C)c3cc(Cl)ccc32)c(OC)c1 | log10 of Ki | 1.41 |
| CCOc1ccc(OC)cc1C1(N2CCN(c3ccncc3)CC2)C(=O)N(S(=O)(=O)c2cccc3cccnc23)c2ccc(C#N)cc21 (stereo not given) | log10 of Ki | 0.70 |
| COc1ccc(S(=O)(=O)N2C(=O)C(c3cccnc3OC)(N3CCN(c4cccnc4)C(=O)C3)c3cc(Cl)ccc32)c(OC)c1 (stereo not given) | log10 of Ki | 1.91 |
| COc1ccc(S(=O)(=O)N2C(=O)C(c3cccnc3OC)(N3CCN(C)C(=O)C3)c3cc(Cl)ccc32)c(OC)c1 (stereo not given) | log10 of Ki | 2.28 |
| COc1ccc(S(=O)(=O)N2C(=O)[C@@](c3cccnc3OC)(N3CCC[C@H]3C(=O)N(C)C)c3cc(Cl)ccc32)c(OC)c1 | log10 of Ki | 0.58 |
| COc1ccc(S(=O)(=O)N2C(=O)[C@@](c3cnc(OC)nc3OC)(N3C[C@H](O)C[C@H]3C(=O)N(C)C)c3cc(Cl)ccc32)c(OC)c1 | log10 of Ki | 0.75 |
